Cited source for all entries: paper PMC12668310

What follows is a record of pIC50 for USP7 (Homo sapiens, UniProt Q93009).
// pIC50 is dimensionless: -log10 of concentration (M)

CHEM SMILES	TARGET	QUANTITATIVE READOUT
N#CN1CC[C@@H](NC(=O)c2ccc(N3CCCC3)cc2F)C1	USP7 (Homo sapiens, UniProt Q93009)	3.77
N#CN1CC[C@@H](NC(=O)c2cc(-c3cccc(Cl)c3)no2)C1	USP7 (Homo sapiens, UniProt Q93009)	4.38
N#CN1CC[C@@H](NC(=O)c2ccc(F)c(F)c2)C1	USP7 (Homo sapiens, UniProt Q93009)	3.68

Now look at this entry.
Form field: reported pIC50 of "COc1ccccc1-c1cc(C(=O)N[C@@H]2CCN(C#N)C2)n[nH]1"
4.28
